measurement target: hGLP-1R (Homo sapiens)
assay text: Functional cAMP activation in the presence of 0.1% casein (no HSA);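 also: intracellular cAMP rise after 30 min at 37 °C read by HTRF, normalized between buffer only (0%) and maximal control ligand (100%), four-parameter variable-slope fit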
Format: cell-based
study conditions: in the presence of 0.1% casein (no HSA); geometric mean of relative EC50; read-out: Relative cAMP EC50, hGLP-1R
Sequence (P43220 24-463): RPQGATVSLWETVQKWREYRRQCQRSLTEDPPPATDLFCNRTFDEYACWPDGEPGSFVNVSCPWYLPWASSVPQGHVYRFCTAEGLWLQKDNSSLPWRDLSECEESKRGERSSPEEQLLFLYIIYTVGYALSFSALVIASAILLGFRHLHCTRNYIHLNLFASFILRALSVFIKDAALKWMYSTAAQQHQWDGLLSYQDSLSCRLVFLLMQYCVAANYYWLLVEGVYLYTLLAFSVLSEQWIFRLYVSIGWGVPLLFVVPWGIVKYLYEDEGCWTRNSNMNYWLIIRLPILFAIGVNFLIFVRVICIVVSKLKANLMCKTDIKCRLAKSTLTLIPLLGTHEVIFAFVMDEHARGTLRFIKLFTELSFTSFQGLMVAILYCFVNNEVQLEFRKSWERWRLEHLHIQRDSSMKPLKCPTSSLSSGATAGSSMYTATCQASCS
Starred links: 1 amine or outer side, 2 acyl side, 3 side chain; linkers in the order of their positions; H or OH if unused. Non-standard residues stand in square brackets, D forms with d. Groups on a side chain read outwards from the residue. *: point of attachment. C18 diacid = O=C(O)CCCCCCCCCCCCCCCCC(=O)*; αMePhe(2-F) = C[C@](N)(Cc1ccccc1F)C(=O)O; γGlu = O=C(O)[C@H](CCC(=O)[*:2])N[*:1]; αMeY = C[C@](N)(Cc1ccc(O)cc1)C(=O)O; 4Pal = N[C@@H](Cc1ccncc1)C(=O)O; αMeL = CC(C)C[C@](C)(N)C(=O)O; αMeS = C[C@](N)(CO)C(=O)O; Orn = NCCC[C@H](N)C(=O)O; AEEA = NCCOCCOCC(=O)O; Aib = CC(C)(N)C(=O)O
measured attribute: EC50 (nM)
Give a bare numeral; the unit nM is implied.

The reported EC50 of the substance H-Y[Aib]QGT[αMePhe(2-F)]TSD[4Pal][αMeS]I[αMeL]LD[Orn]K([AEEA-γGlu-C18 diacid])AA[Aib]EFI[dE][αMeY]LIEGGPSSGAPPPSGEE-NH2 [Example 703] was 0.233

The reported EC50 of the substance H-Y[Aib]QGT[αMePhe(2-F)]TSD[4Pal]SI[αMeL]LDKK([γGlu-γGlu-C18 diacid])AQ[Aib]AFIEYLSEGGPSSGEPPPSGSEE-NH2 [Example 632] was 0.951

The reported EC50 of the substance H-Y[Aib]QGT[αMePhe(2-F)]TSD[4Pal]SI[αMeL]LDKK([γGlu-γGlu-C18 diacid])AQ[Aib][Orn]FIEYLTEGGPSSGEPPPSGSEE-NH2 [Example 638] was 0.4

The reported EC50 of the substance H-Y[Aib]QGT[αMePhe(2-F)]TSD[4Pal]SI[αMeL]LDKK([γGlu-γGlu-C18 diacid])AQ[Aib]AFIEYLQEGGPSSGEPPPSGSEE-NH2 [Example 634] was 0.403

The reported EC50 of the substance H-Y[Aib]QGT[αMePhe(2-F)]TSD[4Pal]SI[αMeL]LDKK([γGlu-γGlu-C18 diacid])AQ[Aib][Orn]FIEYLQEGGPSSGEPPPEGSEE-NH2 [Example 653] was 0.426

---

Listed here are substances together with their documented pEC50.
measurement target: human GcgR (Homo sapiens)
Sequence (P47871 26-477): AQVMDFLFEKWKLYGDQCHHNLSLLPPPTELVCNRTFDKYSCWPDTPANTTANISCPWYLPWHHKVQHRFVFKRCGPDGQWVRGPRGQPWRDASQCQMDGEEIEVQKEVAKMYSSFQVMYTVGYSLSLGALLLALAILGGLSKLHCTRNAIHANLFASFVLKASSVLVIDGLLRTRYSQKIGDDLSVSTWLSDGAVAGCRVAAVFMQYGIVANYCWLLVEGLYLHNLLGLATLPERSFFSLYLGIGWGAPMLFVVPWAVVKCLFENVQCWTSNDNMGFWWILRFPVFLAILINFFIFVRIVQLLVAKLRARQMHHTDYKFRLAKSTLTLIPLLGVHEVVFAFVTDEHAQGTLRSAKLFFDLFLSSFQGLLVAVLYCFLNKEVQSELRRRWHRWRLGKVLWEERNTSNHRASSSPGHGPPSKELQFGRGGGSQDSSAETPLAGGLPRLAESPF
assay text: Functional cAMP activity in the presence of 1% HSA
Assay type: cell-based
study conditions: read-out: cAMP Rel EC50, hGcgR
Starred links: 1 amine or outer side, 2 acyl side, 3 side chain; linkers in the order of their positions; H or OH if unused. Non-standard residues stand in square brackets, D forms with d. Groups on a side chain read outwards from the residue. No end group written: not given here. *: point of attachment. C18 diacid = O=C(O)CCCCCCCCCCCCCCCCC(=O)*; γGlu = O=C(O)[C@H](CCC(=O)[*:2])N[*:1]; αMe4Pal = C[C@](N)(Cc1ccncc1)C(=O)O; 4Pal = N[C@@H](Cc1ccncc1)C(=O)O; αMeL = CC(C)C[C@](C)(N)C(=O)O; AEEA = NCCOCCOCC(=O)O; Aib = CC(C)(N)C(=O)O
Conceptually, pEC50 converts a concentration in mol/L into minus its log10.

# H-Y[Aib]QGTFTSD[4Pal]SQ[αMeL]LDKK([γGlu-γGlu-C18 diacid])AQ[αMe4Pal]AFIE[αMe4Pal]LIEGGPSSGAPPPSGSEE-NH2 [Example 957] with human GcgR (Homo sapiens): pEC50 is 6.02

Please turn your attention to the following entry.
# Y[Aib]QGTFTSD[4Pal]SR[αMeL]LDKK([AEEA-γGlu-C18 diacid])AQ[αMe4Pal]AFIEYLIEGGESSGAPPPSGS-NH2 [Example 792] with human GcgR (Homo sapiens): pEC50 is 6.42

---

measurement target: hGLP-1R (Homo sapiens)
assay text: GLP-1R CHO cell β-arrestin recruitment assay;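 also: luminescence read after 90 min peptide exposure at 37 °C and a further 60 min with detection reagent at room temperature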
Type: cell-based
Parameters: host or cells: CHO-K1 (PathHunter, assay-ready frozen cells)
study conditions: normalized to GLP-1(7-36) as maximum control
Sequence (P43220 24-463): as the sequence (P43220 24-463) above
Sequence (P32121 whole entry partner): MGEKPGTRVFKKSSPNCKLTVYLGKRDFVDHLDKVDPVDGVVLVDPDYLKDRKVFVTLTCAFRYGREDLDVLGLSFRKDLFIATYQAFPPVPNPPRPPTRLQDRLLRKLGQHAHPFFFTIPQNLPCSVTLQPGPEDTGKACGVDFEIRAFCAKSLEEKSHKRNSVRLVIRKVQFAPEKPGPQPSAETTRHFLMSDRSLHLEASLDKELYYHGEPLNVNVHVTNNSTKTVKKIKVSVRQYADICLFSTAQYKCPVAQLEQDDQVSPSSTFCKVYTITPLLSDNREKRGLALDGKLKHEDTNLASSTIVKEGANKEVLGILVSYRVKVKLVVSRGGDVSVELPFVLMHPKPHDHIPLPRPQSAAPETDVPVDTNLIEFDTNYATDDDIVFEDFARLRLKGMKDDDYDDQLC
Starred links: 1 amine or outer side, 2 acyl side, 3 side chain; linkers in the order of their positions; H or OH if unused. Non-standard residues stand in square brackets, D forms with d. Groups on a side chain read outwards from the residue. No end group written: not given here. *: point of attachment. C20 diacid = O=C(O)CCCCCCCCCCCCCCCCCCC(=O)*; C18 diacid = O=C(O)CCCCCCCCCCCCCCCCC(=O)*; αMePhe(2-F) = C[C@](N)(Cc1ccccc1F)C(=O)O; γGlu = O=C(O)[C@H](CCC(=O)[*:2])N[*:1]; NMeY = CN[C@@H](Cc1ccc(O)cc1)C(=O)O; αMeF = C[C@](N)(Cc1ccccc1)C(=O)O; αMeL = CC(C)C[C@](C)(N)C(=O)O; AEEA = NCCOCCOCC(=O)O; Aib = CC(C)(N)C(=O)O
Listed here are substances together with their documented % Stimulation Max.

Previously resolved entries follow.
The reported % Stimulation Max of the substance H-Y[Aib]QGT[αMePhe(2-F)]TSDYSKLLDKIAQK([AEEA-γGlu-C20 diacid])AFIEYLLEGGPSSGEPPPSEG-NH2 [Example 295] was 44.1%

The reported % Stimulation Max of the substance H-Y[Aib]QGTFTSDFSK[αMeL]LDKK([AEEA-AEEA-γGlu-C20 diacid])AQ[Aib]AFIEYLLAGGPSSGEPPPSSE-NH2 [Example 5] was 18.4%

The reported % Stimulation Max of the substance Y[Aib]QGTFTSDFSK[αMeL]LDKK([AEEA-γGlu-C20 diacid])AQ[Aib]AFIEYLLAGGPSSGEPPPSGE-NH2 [Example 2] was 12.3%

The reported % Stimulation Max of the substance H-Y[Aib]QGTFTSDFSI[αMeL]LDKK([AEEA-γGlu-C20 diacid])AQ[Aib]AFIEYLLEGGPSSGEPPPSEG-NH2 [Example 288] was 18%

The reported % Stimulation Max of the substance H-Y[Aib]QGTFTSDYSI[αMeL]LDKQAAK([AEEA-AEEA-γGlu-C20 diacid])AFVEWLLAGGPSSGEPPPSEG-NH2 [Example 305] was 58.3%

The reported % Stimulation Max of the substance H-[NMeY][Aib]QGT[αMeF]TSDYSSLLDKIAAK([AEEA-AEEA-γGlu-C20 diacid])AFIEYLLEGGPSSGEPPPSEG-NH2 [Example 297] was 33.5%

The reported % Stimulation Max of the substance H-Y[Aib]QGT[αMeF]TSDYSILLDKIAAK([AEEA-AEEA-γGlu-C18 diacid])NFIEYLVEGGPSSGEPPPSEG-NH2 [Example 307] was 70.8%

The reported % Stimulation Max of the substance H-Y[Aib]QGTFTSDFSK[αMeL]LDKK([AEEA-γGlu-C20 diacid])AQ[Aib]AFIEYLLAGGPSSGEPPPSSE-NH2 [Example 3] was 16.5%

Next:
The reported % Stimulation Max of the substance H-[NMeY][Aib]QGT[αMeF]TSDYSILLDKIAAK([AEEA-AEEA-γGlu-C20 diacid])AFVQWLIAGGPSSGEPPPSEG-NH2 [Example 300] was 40.3%

The reported % Stimulation Max of the substance H-Y[Aib]QGT[αMePhe(2-F)]TSDYSILLDKIAAK([AEEA-γGlu-C20 diacid])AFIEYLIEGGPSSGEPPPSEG-NH2 [Example 296] was 55.2%

The reported % Stimulation Max of the substance H-Y[Aib]QGT[αMePhe(2-F)]TSDYSKLLDKIAQK([AEEA-γGlu-C20 diacid])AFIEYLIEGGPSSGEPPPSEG-NH2 [Example 304] was 47.8%

The reported % Stimulation Max of the substance H-Y[Aib]QGTFTSDYSI[αMeL]LDKIAAK([AEEA-AEEA-γGlu-C20 diacid])QFVQWLIE[Aib]GPSSGEPPPSEG-NH2 [Example 323] was 44%

---

measurement target: hGIPR (Homo sapiens, UniProt P48546)
Sequence (P48546 22-466): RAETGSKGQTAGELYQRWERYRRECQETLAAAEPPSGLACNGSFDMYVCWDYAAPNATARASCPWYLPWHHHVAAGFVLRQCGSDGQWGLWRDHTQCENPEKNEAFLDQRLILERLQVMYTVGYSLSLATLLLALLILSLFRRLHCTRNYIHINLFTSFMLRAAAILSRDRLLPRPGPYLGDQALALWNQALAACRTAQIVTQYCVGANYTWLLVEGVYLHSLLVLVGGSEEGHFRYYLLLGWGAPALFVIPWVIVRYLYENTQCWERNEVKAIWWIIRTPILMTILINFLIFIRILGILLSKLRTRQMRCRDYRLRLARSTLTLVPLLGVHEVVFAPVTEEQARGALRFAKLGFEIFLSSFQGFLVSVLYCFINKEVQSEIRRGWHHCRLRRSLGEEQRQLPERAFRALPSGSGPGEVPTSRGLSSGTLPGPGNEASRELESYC
assay text: Functional cAMP activity in the presence of 1% HSA
Format: cell-based
study conditions: read-out: cAMP Rel EC50, hGIPR
pEC50: −log10 of the molar value. Starred links: 1 amine or outer side, 2 acyl side, 3 side chain; linkers in the order of their positions; H or OH if unused. Non-standard residues stand in square brackets, D forms with d. Groups on a side chain read outwards from the residue. No end group written: not given here. *: point of attachment. C20 diacid = O=C(O)CCCCCCCCCCCCCCCCCCC(=O)*; C18 diacid = O=C(O)CCCCCCCCCCCCCCCCC(=O)*; Phe(4-CN) = N#Cc1ccc(C[C@H](N)C(=O)O)cc1; αMePhe(2-F) = C[C@](N)(Cc1ccccc1F)C(=O)O; γGlu = O=C(O)[C@H](CCC(=O)[*:2])N[*:1]; αMe4Pal = C[C@](N)(Cc1ccncc1)C(=O)O; αMeY = C[C@](N)(Cc1ccc(O)cc1)C(=O)O; 4Pal = N[C@@H](Cc1ccncc1)C(=O)O; αMeL = CC(C)C[C@](C)(N)C(=O)O; αMeS = C[C@](N)(CO)C(=O)O; Orn = NCCC[C@H](N)C(=O)O; AEEA = NCCOCCOCC(=O)O; Aib = CC(C)(N)C(=O)O
Short version: pEC50 at least 8 is True, less is False.

Sample answers from the record:
pEC50 >= 8 for Y[Aib]QGTFTSDFS[Orn][αMeL]LDKK([AEEA-γGlu-C18 diacid])AQ[Aib]AFIEWLLEGGHSSGEPPPSGE-NH2 [Example 124] ?
False

pEC50 >= 8 for H-Y[Aib]QGTFTSD[Phe(4-CN)]S[Orn][αMeL]LDKK([AEEA-γGlu-C18 diacid])AQ[Aib]AFIEYLLE[Aib]GPSSGAPPPSGS-NH2 [Example 191] ?
False

pEC50 >= 8 for Y[Aib]QGT[αMePhe(2-F)]TSD[4Pal][αMeS]ILLD[Orn]K([γGlu-γGlu-C18 diacid])AQ[Aib][Orn]FI[dE]YLIEGGPSSGEPPPEGEEE-NH2 [Example 606] ?
True

pEC50 >= 8 for H-Y[Aib]QGT[αMePhe(2-F)]TSD[4Pal][αMeS]I[αMeL]LD[Orn]K([AEEA-γGlu-C18 diacid])AA[Aib]EFI[dE][αMeY]LIEGGPSSGAPPPSGTEQ-OH [Example 726] ?
True

pEC50 >= 8 for Y[Aib]QGT[αMePhe(2-F)]TSD[4Pal]SI[αMeL]LD[Orn]K([AEEA-γGlu-C18 diacid])AQ[αMe4Pal][Orn]FI[dE][αMeY]LIEGGPSSGDPPPEAE-NH2 [Example 728] ?
True

Next:
pEC50 >= 8 for H-Y[Aib]QGTFTSDFSK[αMeL]LDKK([AEEA-γGlu-C20 diacid])AQ[Aib]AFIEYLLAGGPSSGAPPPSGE-NH2 [Example 11] ?
False

pEC50 >= 8 for Y[Aib]QGT[αMePhe(2-F)]TSD[4Pal][αMeS]I[αMeL]LD[Orn]K([AEEA-γGlu-C18 diacid])AQ[αMe4Pal]EFI[dE][αMeY]LIEGGPSSGEPPPSGE-NH2 [Example 1141] ?
True

pEC50 >= 8 for H-Y[Aib]QGTFTSD[4Pal]SQ[αMeL]LDKK([γGlu-AEEA-γGlu-C18 diacid])AQ[αMe4Pal]AFIEYLIE[Aib]GPSSGAPPPSGS-NH2 [Example 861] ?
False

pEC50 >= 8 for Y[Aib]QGT[αMePhe(2-F)]TSD[4Pal]SI[αMeL]LD[Orn]K([AEEA-γGlu-C18 diacid])AQ[αMe4Pal][Orn]FI[dE][αMeY]LIEGGPSSGEPPPEGGGE-NH2 [Example 757] ?
True

# credit: patent US20240270821A1
